tested system: Aldehyde dehydrogenase 1A1 (Homo sapiens) (UniProt P00352)
Sequence (P00352 whole entry, looked up): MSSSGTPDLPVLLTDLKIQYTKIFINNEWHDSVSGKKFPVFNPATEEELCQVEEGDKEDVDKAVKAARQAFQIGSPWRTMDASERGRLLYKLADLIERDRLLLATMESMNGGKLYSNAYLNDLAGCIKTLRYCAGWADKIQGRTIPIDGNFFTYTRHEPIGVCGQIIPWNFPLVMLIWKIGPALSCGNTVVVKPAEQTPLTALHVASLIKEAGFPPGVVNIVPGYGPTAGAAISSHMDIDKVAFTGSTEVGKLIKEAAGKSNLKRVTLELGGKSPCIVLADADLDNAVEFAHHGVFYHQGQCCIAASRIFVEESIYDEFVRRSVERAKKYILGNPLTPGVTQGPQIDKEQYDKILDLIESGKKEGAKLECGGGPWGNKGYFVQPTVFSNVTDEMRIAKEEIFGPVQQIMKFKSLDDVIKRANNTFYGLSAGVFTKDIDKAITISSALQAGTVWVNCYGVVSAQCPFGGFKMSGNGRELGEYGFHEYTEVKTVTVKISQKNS
assay comment: qHTS Assay for Inhibitors of Aldehyde Dehydrogenase 1 (ALDH1A1)
test parameters: Purified ALDH1A1, NADH fluorescence, propionaldehyde substrate; series mostly up to 75.3 µM
Among all 220,000 compounds or so, about 16,000 (7.3%) were called active. Not shown: some 25% with an inconclusive outcome. The call rests on the fitted dose curve; in most records, active means well fitted inhibition curve with a large enough effect (not every such curve was filed as active); inconclusive means small, poorly fitted or top-dose-only effect, or another doubt; inactive means no such curve, though single readings can be large or run the other way. The sample holds actives, similar compounds and a random draw of the others, so the mix is not that of the screen.
Outcomes: y (active), n (inactive)

[[record]]
compound = "O=C(Nc1ccc2c(c1)OCO2)c1ccc(N2C(=O)c3ccccc3C2=O)cc1"
group_label = "n"

[[record]]
compound = "O=c1oc(/C=C/c2ccccc2)nc2ccccc12"
group_label = "n"

[[record]]
compound = "Fc1ccccc1Cc1ccc(Cl)nn1"
group_label = "n"

[[record]]
compound = "CC(Cc1cccs1)NC(=O)c1cccc(Cl)c1 (configuration not stated)"
group_label = "n"

[[record]]
compound = "COCC(C)NC(=O)c1ccc(Cl)c(Cl)c1 (configuration not stated)"
group_label = "n"

[[record]]
compound = "O=CN1CCN(C2CC(=O)N(c3ccc4c(c3)OCO4)C2=O)CC1 (configuration not stated)"
group_label = "y"

[[record]]
compound = "CC(/C=N/NC(=O)c1cc(-c2ccc3ccccc3c2)n[nH]1)=C\\c1ccco1"
group_label = "n"

[[record]]
compound = "CC(C)NC(=S)NN=C1CCCCCCCCCCC1"
group_label = "n"

[[record]]
compound = "COc1ccc(CNC(=O)C2CCN(S(C)(=O)=O)CC2)cc1"
group_label = "n"

[[record]]
compound = "CC(/C=N/NC(=O)c1ccncc1)=C\\c1ccco1"
group_label = "n"

[[record]]
compound = "COc1cccc(C(=O)Nc2c3c(nn2-c2cccc(C)c2C)CS(=O)(=O)C3)c1OC"
group_label = "n"

[[record]]
compound = "C[C@@H]1CC[C@]2(O[C@@H](CCO)C[C@H](O)[C@H]2O)O1"
group_label = "n"


====

tested system: Aldehyde dehydrogenase 1A1 (Homo sapiens) (UniProt P00352)
assay comment: qHTS Assay for Inhibitors of Aldehyde Dehydrogenase 1 (ALDH1A1)
test parameters: Purified ALDH1A1, NADH fluorescence, propionaldehyde substrate; series mostly up to 75.3 µM
In all, about 220,000 compounds went through this assay and about 16,000 (7.3%) were called active. About 25% were inconclusive and are not listed. The call rests on the fitted dose curve; in most records, active means well fitted inhibition curve with a large enough effect (not every such curve was filed as active); inconclusive means small, poorly fitted or top-dose-only effect, or another doubt; inactive means no such curve, though single readings can be large or run the other way. For the sample, actives were picked, then their nearest neighbours and some compounds at random.
Outcome codes: 1 (active), 0 (inactive)

[[record]]
compound = "Cc1cnc(NC(=O)CSc2nnc(-c3ccc(Cl)cc3Cl)n2N)s1"
group_label = 1

[[record]]
compound = "COc1ccc(C(=O)CSc2nnc(-c3ccco3)o2)cc1"
group_label = 0

[[record]]
compound = "O=C(c1ccc(Cl)cc1)c1cnc(Nc2ccccc2)s1"
group_label = 0

[[record]]
compound = "O=C(Nc1cccc(Cl)c1)OCc1ccccn1"
group_label = 0

[[record]]
compound = "NS(=O)(=O)c1ccc(NC(=O)/C=C/c2ccccc2Cl)cc1"
group_label = 0

[[record]]
compound = "CSc1ccccc1NC(=O)Cc1ccc(Br)cc1"
group_label = 0

[[record]]
compound = "C/C(=N/NC(=O)c1ccn(C)n1)c1ccncc1"
group_label = 0

[[record]]
compound = "O=C(N/N=C/c1ccco1)c1ccc(C(=O)N/N=C/c2ccco2)o1"
group_label = 0

[[record]]
compound = "O=C(COc1cccc2ccccc12)Nc1cc(S(=O)(=O)N2CCOCC2)ccc1N1CCOCC1"
group_label = 0

[[record]]
compound = "Cc1ccc(S(=O)(=O)N2CCC(C(=O)N[C@@H](C)C(=O)NCCc3ccccc3)CC2)cc1"
group_label = 0

[[record]]
compound = "C/C(=C\\C(=O)c1ccccc1)Nc1cccc(O)c1"
group_label = 0

[[record]]
compound = "O=C(N/N=C/C=C/c1ccco1)c1cccs1"
group_label = 1

[[record]]
compound = "CN(CC(=O)Nc1ccc(S(=O)(=O)N2CCCC2)cc1)Cc1ccc(Cl)c(Cl)c1"
group_label = 1

[[record]]
compound = "CCOC(=O)c1c(N=CN(C)C)c(C#N)c2n1CCCC2"
group_label = 0

[[record]]
compound = "COc1ccc(CCNC(=O)c2cc(-c3ccc4c(c3)OCO4)on2)cc1OC"
group_label = 0

[[record]]
compound = "O=C(NNc1ccccn1)c1ccc(Cl)nc1"
group_label = 0

[[record]]
compound = "Cn1cnnc1Sc1ccc(S(C)(=O)=O)cc1[N+](=O)[O-]"
group_label = 0

[[record]]
compound = "Cc1nnc(SCc2cccc(Cl)c2)n(N)c1=O"
group_label = 0

[[record]]
compound = "O=C(CSc1ccccn1)Nc1nc2c(ccc3ccccc32)s1"
group_label = 0

[[record]]
compound = "O=C(Cc1ccc2c(c1)CCCC2)Nc1ccccc1Cl"
group_label = 1

[[record]]
compound = "Cc1ccccc1CN1C[C@@H]2C[C@@H](c3ccc4nsnc4c3)N3CCC[C@@]23C1=O"
group_label = 0

[[record]]
compound = "Cc1cc(O)ccc1-c1cnc2ccccc2n1"
group_label = 1

[[record]]
compound = "O=C(CSc1nnnn1-c1ccc(O)cc1)N1N=C(c2ccc3ccccc3c2)CC1c1ccccc1 (stereo unspecified)"
group_label = 0

[[record]]
compound = "C=CCOC(=O)NC(c1ccc(F)c(F)c1)C(C(=O)COC)C(=O)OC (stereo unspecified)"
group_label = 0

[[record]]
compound = "Cc1ccccc1C(=O)NNC(=O)CN1C(=O)c2ccccc2C1=O"
group_label = 0

[[record]]
compound = "O=C(Nc1ccccc1)c1nnsc1S(=O)(=O)c1ccc(Cl)cc1"
group_label = 1

[[record]]
compound = "COc1c2c(cc3occ(-c4ccc5c(c4)OCO5)c(=O)c13)OC(C)(C)C=C2"
group_label = 1

[[record]]
compound = "CN(C)S(=O)(=O)c1cccc(NC(=S)N/N=C/C(=O)c2ccccc2)c1"
group_label = 1

[[record]]
compound = "Cc1ccc(CN2CCN(Cc3cn(C)nc3-c3ccccc3)CC2CCO)o1 (stereo unspecified)"
group_label = 0

[[record]]
compound = "O=C(CN1CCN(c2ccc(O)cc2)CC1)Nc1cc(S(=O)(=O)N2CCOCC2)ccc1Cl"
group_label = 1

[[record]]
compound = "O=C(CC1SC(=Nc2ccccc2)N(Cc2ccccn2)C1=O)Nc1cccc(Cl)c1 (stereo unspecified)"
group_label = 1

[[record]]
compound = "CC(=O)Nc1ccc(/C=N/NC(=O)c2cccs2)cc1"
group_label = 0

[[record]]
compound = "CN(C)S(=O)(=O)c1cccc(C(=O)Nc2cccnc2)c1"
group_label = 0

[[record]]
compound = "c1ccc2nc(C3=NCCN3)cnc2c1"
group_label = 0

[[record]]
compound = "COCCNC(=O)CCCn1c(=O)c2ccccc2n(Cc2cccc([N+](=O)[O-])c2)c1=O"
group_label = 0

[[record]]
compound = "CC[N+]1(CC)CC2=Cc3ccccc3CC2C1 (stereo unspecified)"
group_label = 0

[[record]]
compound = "Cc1ccc(SCC(=O)Nc2ncc(C)s2)cc1"
group_label = 0

[[record]]
compound = "CCCC(=O)Nc1cccc(NC(=S)NC(=O)C(C)Oc2ccc(Cl)cc2Cl)c1 (stereo unspecified)"
group_label = 1

[[record]]
compound = "Cc1cnc(NC(=O)CSc2nnc(-c3ccccc3)n2Cc2ccccc2)s1"
group_label = 0

[[record]]
compound = "Cc1ccc(Nc2cc(=O)n(C3CCCCC3)c(=O)[nH]2)cc1C"
group_label = 1

[[record]]
compound = "O=C1CCCN1CCCNC(=S)Nc1ccc(F)c(Cl)c1"
group_label = 0

[[record]]
compound = "O=C(NC(=O)c1cc(OCC(F)(F)F)ccc1OCC(F)(F)F)Nc1ccccc1"
group_label = 0

[[record]]
compound = "CCOC(=O)NC(=O)C(=CNc1cccc(OC)c1)C(=O)NC(=O)OCC"
group_label = 0

[[record]]
compound = "CN1CCN(/N=C/c2ccc(-c3ccc([N+](=O)[O-])cc3)o2)CC1"
group_label = 0

[[record]]
compound = "Cc1ccc(C(=O)NCC(=O)O)s1"
group_label = 0

[[record]]
compound = "CCOC(=O)c1cc(-c2ccc(F)cc2)n(CC(=O)NCc2ccccn2)c1C"
group_label = 0


Reference source: PubChem BioAssay AID1030
